Tested on: ATP;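 also: ATP exposure 15 min at 22 °C before imaging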
assay-notes: switch fluorescence ratio, 500 uM ATP over buffer (Cy3 cluster intensity, sum of 5 cycles each) (fold (ratio)); higher = stronger signal-on switching upon ATP binding; sequences stand for … in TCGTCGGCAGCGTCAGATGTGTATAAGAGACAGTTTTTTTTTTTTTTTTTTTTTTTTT…TC
condition-info: aptamer strand: ATP DNA aptamer (quencher-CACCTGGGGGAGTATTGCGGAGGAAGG + anchor), 100 nM annealed; ATP concentration: 500 uM
result-type: switch fluorescence ratio
Could you keep your reply to the number by itself?

These recorded examples may help you get a feel for the data.
{"seq": "TCGGGGATCA", "assayed-system": "ATP", "switch fluorescence ratio": 0.975}
{"seq": "CGAATGAGGT", "assayed-system": "ATP", "switch fluorescence ratio": 0.99}
{"seq": "TGGGTGTCAC", "assayed-system": "ATP", "switch fluorescence ratio": 0.987}

What does the data say about its switch fluorescence ratio? Entry: GGCGTTTATC
0.975

switch fluorescence ratio lookup needed for TTTTTTGTGG , thanks.
0.978

If you can, please state the reported switch fluorescence ratio value of AAGCGAAAAA .
1.01

Sample TGGGACGCCG — what was its switch fluorescence ratio?
1.01

May I ask what switch fluorescence ratio has been recorded for TATACAATGG ?
1.01

----------
Tested on: ATP;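 also: ATP exposure 15 min at 22 °C before imaging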
assay-notes: switch fluorescence ratio, 500 uM ATP over buffer (Cy3 cluster intensity, sum of 5 cycles each) (fold (ratio)); higher = stronger signal-on switching upon ATP binding; sequences stand for … in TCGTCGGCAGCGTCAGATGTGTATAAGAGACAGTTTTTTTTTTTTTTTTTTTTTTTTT…TC
condition-info: aptamer strand: ATP DNA aptamer (quencher-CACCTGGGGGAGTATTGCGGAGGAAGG + anchor), 100 nM annealed; ATP concentration: 500 uM
result-type: switch fluorescence ratio
Reply with the value as a number alone.

Reference set (3 entries):
{"seq": "CAGACAGTTT", "meas-value": 0.993}
{"seq": "ATGAGTTGTA", "meas-value": 1.01}
{"seq": "CGTTTCATGC", "meas-value": 1.05}

Using the record for CAGTATGGTA , report its switch fluorescence ratio.
1

Form field: reported switch fluorescence ratio of TTAGCTACTG
1.03

Which switch fluorescence ratio is reported for this sequence? GGTATTGGAC
0.995

Fill in the blank: the reported switch fluorescence ratio of GAGTACTAGT is ____.
1.02

Item under review: TATGGTCACC . Reported switch fluorescence ratio?
1.03

----------
System: ATP;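 also: ATP exposure 15 min at 22 °C before imaging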
assay-notes: switch fluorescence ratio, 500 uM ATP over buffer (Cy3 cluster intensity, sum of 5 cycles each) (fold (ratio)); higher = stronger signal-on switching upon ATP binding; sequences stand for … in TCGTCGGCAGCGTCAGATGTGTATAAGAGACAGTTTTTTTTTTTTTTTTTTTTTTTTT…TC
condition-info: aptamer strand: ATP DNA aptamer (quencher-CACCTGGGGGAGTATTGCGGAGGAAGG + anchor), 100 nM annealed; ATP concentration: 500 uM
Use Y when the recorded switch fluorescence ratio is no lower than 1; use N when it is lower.

Is the recorded value of switch fluorescence ratio equal to or greater than 1 for this sequence? AACGCATAGG
Y

Is switch fluorescence ratio for AAGAATTGCG at or above 1?
N

Determine whether this sequence has switch fluorescence ratio no lower than 1: TATCCGGAAT
Y

Is switch fluorescence ratio at least 1? Consider CTCAGAATAG
Y
